inhibition values by entry
Tested Target: Uracil-DNA glycosylase (Homo sapiens) (UniProt P13051);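 note: UNG excision on a quenched double-stranded DNA oligo probe, with APE1 added for strand incision and turnover, read as fluorescence at 594 nm as strands separate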
Sequence (P13051 whole entry): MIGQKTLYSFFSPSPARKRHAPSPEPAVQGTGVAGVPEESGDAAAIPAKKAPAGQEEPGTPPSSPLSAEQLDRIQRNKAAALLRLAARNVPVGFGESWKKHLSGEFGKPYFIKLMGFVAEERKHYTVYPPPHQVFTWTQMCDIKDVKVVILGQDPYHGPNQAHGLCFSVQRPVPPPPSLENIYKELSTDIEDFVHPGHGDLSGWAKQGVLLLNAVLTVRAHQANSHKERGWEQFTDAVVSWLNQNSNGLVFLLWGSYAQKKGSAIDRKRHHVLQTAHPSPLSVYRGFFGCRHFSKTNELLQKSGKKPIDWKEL
Condition Context: Compound Concentration 10.0 uM, Hit No

[
  {
    "Compound": "NC(CCP(=O)(O)O)C(=O)O (racemic)",
    "Unit Abbreviation": "%",
    "inhibition": -6.54
  },
  {
    "Compound": "N#CC1(c2ccccn2)CCN(Cc2cc(C(=O)O)c(=O)n3ccccc23)CC1",
    "Unit Abbreviation": "%",
    "inhibition": 1.66
  },
  {
    "Compound": "CC#C[C@@H](CC(=O)O)c1ccc(OCc2cccc(-c3ccc(C(F)(F)F)cc3)c2)cc1",
    "Unit Abbreviation": "%",
    "inhibition": -4.48
  },
  {
    "Compound": "Cc1cc(OCCCS(C)(=O)=O)cc(C)c1-c1cccc(COc2ccc3c(c2)OC[C@H]3CC(=O)O)c1",
    "Unit Abbreviation": "%",
    "inhibition": -3.46
  },
  {
    "Compound": "CC1(C)CN2C(CS/C(=N\\C3CCCCC3)NC3CCCCC3)=CSC2=N1",
    "Unit Abbreviation": "%",
    "inhibition": -3.07
  },
  {
    "Compound": "C[C@@H](NC(=O)Nc1cc2[nH]ncc2c(CO)n1)c1ccccc1",
    "Unit Abbreviation": "%",
    "inhibition": 3.78
  },
  {
    "Compound": "CC(=O)N1CCC(c2ccc(C(=O)NC(=N)N)cc2C(F)(F)F)CC1",
    "Unit Abbreviation": "%",
    "inhibition": 3.89
  },
  {
    "Compound": "CCCc1c(OCCCOc2ccc(OCC(=O)O)cc2)ccc(C(C)=O)c1O",
    "Unit Abbreviation": "%",
    "inhibition": 2.04
  },
  {
    "Compound": "COc1cc2nc(N3CCN(C(=O)c4ccco4)CC3)nc(N)c2cc1OC",
    "Unit Abbreviation": "%",
    "inhibition": -8.11
  },
  {
    "Compound": "c1ccc2c(c1)CCC[C@H]2Nc1nc2ccccc2[nH]1",
    "Unit Abbreviation": "%",
    "inhibition": -4.72
  },
  {
    "Compound": "C[C@H](NC(=O)Cc1ccc(-c2ccc3cccnc3n2)cc1)c1ccc(-c2ccc(F)c(C(F)(F)F)c2)cc1",
    "Unit Abbreviation": "%",
    "inhibition": -4.78
  },
  {
    "Compound": "COc1cc(-c2cn([C@H]3CCc4ccccc4N(CC(F)(F)F)C3=O)nn2)ccc1-n1ccc(C)n1",
    "Unit Abbreviation": "%",
    "inhibition": 8.95
  },
  {
    "Compound": "CC(C)C[C@@H](NC(=O)[C@H](Cc1ccccc1)NC(=O)CNC(=O)[C@@H](C)NC(=O)[C@@H](N)Cc1ccc(O)cc1)C(=O)O",
    "Unit Abbreviation": "%",
    "inhibition": -7.3
  }
]

###

Tested Target: Adenine DNA glycosylase (Homo sapiens);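 note: human MUTYH activity read as 594 nm fluorescence from cleavage and release of a quenched DNA duplex, coupled with APE1 for strand incision, lower signal meaning inhibition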
Condition Context: Compound Concentration 10.0 uM, Hit No
inhibition values by entry

[
  {
    "Compound": "CCCCC[C@H](O)/C=C/[C@@H]1[C@@H](C/C=C\\CCCC(=O)O)[C@@H](O)C[C@H]1O",
    "Tested Target": "Adenine DNA glycosylase (Homo sapiens)",
    "Unit Abbreviation": "%",
    "inhibition": -4.2
  },
  {
    "Compound": "CC[C@H](Nc1c(C#N)c(-c2ccc(-c3cccc(C)c3F)cc2)nc2cnccc12)C(=O)O",
    "Tested Target": "Adenine DNA glycosylase (Homo sapiens)",
    "Unit Abbreviation": "%",
    "inhibition": 34.2
  },
  {
    "Compound": "O=C(Nc1cccnc1)c1cc(-c2ccnc(F)c2)ccc1OCc1ccccc1",
    "Tested Target": "Adenine DNA glycosylase (Homo sapiens)",
    "Unit Abbreviation": "%",
    "inhibition": 3.77
  },
  {
    "Compound": "Cc1cc(-n2nc(Cc3cc(F)cc(C(F)(F)F)c3)nc2C)ccc1C(N)=O",
    "Tested Target": "Adenine DNA glycosylase (Homo sapiens)",
    "Unit Abbreviation": "%",
    "inhibition": 0.715
  },
  {
    "Compound": "CC(C)C(=O)N1CCC(c2cn(C)c3ncc(NC(=O)c4cccc(C#N)c4)c(C(F)(F)F)c23)CC1",
    "Tested Target": "Adenine DNA glycosylase (Homo sapiens)",
    "Unit Abbreviation": "%",
    "inhibition": 7.16
  },
  {
    "Compound": "COc1cc2nc(N3CCN(C(=O)c4ccco4)CC3)nc(N)c2cc1OC",
    "Tested Target": "Adenine DNA glycosylase (Homo sapiens)",
    "Unit Abbreviation": "%",
    "inhibition": 14
  },
  {
    "Compound": "CCOC(=O)Nc1ccc2c(c1)N(C(=O)CN(CC)CC)c1ccccc1CC2",
    "Tested Target": "Adenine DNA glycosylase (Homo sapiens)",
    "Unit Abbreviation": "%",
    "inhibition": -4.04
  },
  {
    "Compound": "N[C@@H]1c2cccnc2[C@H](OC(=O)N2CCC(n3c(=O)[nH]c4ncccc43)CC2)CC[C@H]1c1cccc(F)c1F",
    "Tested Target": "Adenine DNA glycosylase (Homo sapiens)",
    "Unit Abbreviation": "%",
    "inhibition": -2.28
  },
  {
    "Compound": "CC(C)NCC(O)COc1ccc(CCOCC2CC2)cc1 (stereo unspecified)",
    "Tested Target": "Adenine DNA glycosylase (Homo sapiens)",
    "Unit Abbreviation": "%",
    "inhibition": -5.48
  },
  {
    "Compound": "CC1(C)SSC(C)(C)[C@@H](NC(=O)[C@@H](N)Cc2ccc(O)cc2)C(=O)NCC(=O)N[C@@H](Cc2ccccc2)C(=O)N[C@H]1C(=O)O",
    "Tested Target": "Adenine DNA glycosylase (Homo sapiens)",
    "Unit Abbreviation": "%",
    "inhibition": 1.3
  },
  {
    "Compound": "CCNC(=O)[C@H]1O[C@@H](n2cnc3c(N)ncnc32)[C@H](O)[C@@H]1O",
    "Tested Target": "Adenine DNA glycosylase (Homo sapiens)",
    "Unit Abbreviation": "%",
    "inhibition": -3.4
  },
  {
    "Compound": "COc1ccc(CC(=O)NCc2ccccc2-c2ccccc2C(=O)NCc2ccc(F)cc2F)cc1",
    "Tested Target": "Adenine DNA glycosylase (Homo sapiens)",
    "Unit Abbreviation": "%",
    "inhibition": 11.7
  },
  {
    "Compound": "N#CN1CC[C@H](C(=O)Nc2nc3c(s2)CN(C(=O)CN=[N+]=[N-])CC3)C1",
    "Tested Target": "Adenine DNA glycosylase (Homo sapiens)",
    "Unit Abbreviation": "%",
    "inhibition": -6.77
  },
  {
    "Compound": "CN[C@@H](C)C/C=C/c1cncc(OC(C)C)c1",
    "Tested Target": "Adenine DNA glycosylase (Homo sapiens)",
    "Unit Abbreviation": "%",
    "inhibition": 16.8
  },
  {
    "Compound": "CN(C(=O)/C=C/c1ccoc1)[C@@H]1CC[C@@]2(O)[C@H]3Cc4ccc(O)c5c4[C@@]2(CCN3CC2CC2)[C@H]1O5",
    "Tested Target": "Adenine DNA glycosylase (Homo sapiens)",
    "Unit Abbreviation": "%",
    "inhibition": 8.72
  },
  {
    "Compound": "C/N=C(/NC#N)NCCSCc1csc(NC(=N)N)n1",
    "Tested Target": "Adenine DNA glycosylase (Homo sapiens)",
    "Unit Abbreviation": "%",
    "inhibition": -6.76
  },
  {
    "Compound": "CCCCCC(O)/C=C/[C@H]1C(=O)CC(O)C1C/C=C\\CCCC(=O)O (stereo partly specified)",
    "Tested Target": "Adenine DNA glycosylase (Homo sapiens)",
    "Unit Abbreviation": "%",
    "inhibition": 12.9
  },
  {
    "Compound": "CC(C1CC2CCC1C2)n1c(S)nnc1-c1ccco1 (stereo unspecified)",
    "Tested Target": "Adenine DNA glycosylase (Homo sapiens)",
    "Unit Abbreviation": "%",
    "inhibition": 19.9
  },
  {
    "Compound": "CC(=O)Nc1nc(CN2CCC[C@H](Cc3cc(C)nc(C)c3)C2)cs1",
    "Tested Target": "Adenine DNA glycosylase (Homo sapiens)",
    "Unit Abbreviation": "%",
    "inhibition": 17.8
  },
  {
    "Compound": "CCC(=O)Nc1cccc(Oc2nc(Nc3ccc(N4CCN(C)CC4)cc3OC)ncc2Cl)c1",
    "Tested Target": "Adenine DNA glycosylase (Homo sapiens)",
    "Unit Abbreviation": "%",
    "inhibition": -2.48
  },
  {
    "Compound": "C[C@@H](N)Cc1c[nH]cn1",
    "Tested Target": "Adenine DNA glycosylase (Homo sapiens)",
    "Unit Abbreviation": "%",
    "inhibition": -1.26
  },
  {
    "Compound": "COc1cc2nc(N3CCN(C(=O)COc4c(OC)cccc4C(C)C)CC3)nc(N)c2cc1OC",
    "Tested Target": "Adenine DNA glycosylase (Homo sapiens)",
    "Unit Abbreviation": "%",
    "inhibition": -1.51
  },
  {
    "Compound": "CCCn1c(=O)c2nc(C34CC5CC(CC3C5)C4)[nH]c2n(CCC)c1=O",
    "Tested Target": "Adenine DNA glycosylase (Homo sapiens)",
    "Unit Abbreviation": "%",
    "inhibition": 6.8
  },
  {
    "Compound": "CCO[C@@H](Cc1ccc(OCCc2ccc(OS(C)(=O)=O)cc2)cc1)C(=O)O",
    "Tested Target": "Adenine DNA glycosylase (Homo sapiens)",
    "Unit Abbreviation": "%",
    "inhibition": -4.86
  },
  {
    "Compound": "O=[N+]([O-])c1ccc(CN2CCOCCOCCN(Cc3ccc([N+](=O)[O-])cc3)CCOCC2)cc1",
    "Tested Target": "Adenine DNA glycosylase (Homo sapiens)",
    "Unit Abbreviation": "%",
    "inhibition": 3.42
  },
  {
    "Compound": "O=C(Nc1ccc(Cl)cc1)N[C@@H](Cc1ccccc1)C(=O)N1CCCCC1",
    "Tested Target": "Adenine DNA glycosylase (Homo sapiens)",
    "Unit Abbreviation": "%",
    "inhibition": 13.5
  },
  {
    "Compound": "Cn1c(C2(NC(=O)c3ccc4c(C5CCCC5)c(-c5ncc(Br)cn5)n(C)c4c3)CCC2)nc2ccc(/C=C/C(=O)O)cc21",
    "Tested Target": "Adenine DNA glycosylase (Homo sapiens)",
    "Unit Abbreviation": "%",
    "inhibition": 68.7
  },
  {
    "Compound": "Cn1cncc1[C@@](O)(COc1ccc(C#N)cc1-c1ccc(OC(F)(F)F)cc1)c1ccc(C#N)cc1",
    "Tested Target": "Adenine DNA glycosylase (Homo sapiens)",
    "Unit Abbreviation": "%",
    "inhibition": -9.72
  },
  {
    "Compound": "O=C1C[C@@H]2OCC=C3CN4CC[C@]56c7ccccc7N1[C@H]5[C@H]2[C@H]3C[C@H]46",
    "Tested Target": "Adenine DNA glycosylase (Homo sapiens)",
    "Unit Abbreviation": "%",
    "inhibition": 38.1
  },
  {
    "Compound": "Nc1nc2c(c(N3CCNCC3)n1)CCC1=C2[C@@H]2CCCC[C@@H]2O1",
    "Tested Target": "Adenine DNA glycosylase (Homo sapiens)",
    "Unit Abbreviation": "%",
    "inhibition": 3.48
  },
  {
    "Compound": "O=C(O)C1CN(Cc2ccc(OCc3ccc(Cl)c(Cl)c3)cc2)C1",
    "Tested Target": "Adenine DNA glycosylase (Homo sapiens)",
    "Unit Abbreviation": "%",
    "inhibition": 19.2
  }
]
